Target: FFA3/GPR41 (Homo sapiens)
Construct: host or cells: Flp-In-293
Sequence (O14843 whole entry): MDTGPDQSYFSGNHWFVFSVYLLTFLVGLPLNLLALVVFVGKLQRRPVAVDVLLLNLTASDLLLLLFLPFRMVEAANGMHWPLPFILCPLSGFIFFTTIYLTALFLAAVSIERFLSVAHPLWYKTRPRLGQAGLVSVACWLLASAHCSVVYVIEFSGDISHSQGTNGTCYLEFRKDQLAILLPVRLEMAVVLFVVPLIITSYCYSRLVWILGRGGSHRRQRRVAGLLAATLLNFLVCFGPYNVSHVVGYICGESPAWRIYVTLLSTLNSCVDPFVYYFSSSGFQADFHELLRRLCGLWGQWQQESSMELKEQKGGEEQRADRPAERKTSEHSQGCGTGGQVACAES
Assay: forskolin-stimulated cAMP accumulation assay, Flp-In-293 cells stably expressing FFA3/GPR41
Type: cell-based
Settings: Flp-In-293; mean ± SD; read-out: FFA3/GPR41 Emax, maximal inhibition of forskolin-stimulated cAMP (converted)
Description: All of our synthesized compounds were evaluated in forskolin-stimulated cAMP accumulation assay using Flp-In-293 cells stably expressing human FFA2/GPR43, FFA3/GPR41 or HCA2/GPR109A receptors (Table 1, Table 2 and Table 3; Figure 2). Flp-In-293 cells (Invitrogen) were used for the generation of stable FFA3/GPR41 and FFA2/GRP43 cell lines using Flp-In System (Invitrogen). […]
readout: Emax (%)

{"compound": "CCOC(=O)CSc1nc(=O)c2c(CCCCCl)cc(=O)oc2[nH]1", "measValue": 91}
{"compound": "CCOC(=O)COC(=O)C1=C(C)NC2=C(C(=O)CCC2)C1c1cccs1 (centres unmarked)", "measValue": 91}
{"compound": "Cc1cc(=O)oc2[nH]c(=S)[nH]c(=O)c12", "measValue": 89}
{"compound": "O=c1[nH]c(=O)c2c(CCCCCl)cc(=O)oc2[nH]1", "measValue": 89}
{"compound": "O=c1cc(CCCCCl)c2c(=O)[nH]c(=S)[nH]c2o1", "measValue": 89}

###

target: FFA2/GPR43 (Homo sapiens, UniProt O15552); construct: host or cells: Flp-In-293; test: forskolin-stimulated cAMP accumulation assay, Flp-In-293 cells stably expressing FFA2/GPR43; assay type: cell-based; details: Flp-In-293; 50 µM compound; NA = not active up to 50 µM;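 note: percent inhibition relative to forskolin-stimulated cAMP level as control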
Sequence (O15552 whole entry): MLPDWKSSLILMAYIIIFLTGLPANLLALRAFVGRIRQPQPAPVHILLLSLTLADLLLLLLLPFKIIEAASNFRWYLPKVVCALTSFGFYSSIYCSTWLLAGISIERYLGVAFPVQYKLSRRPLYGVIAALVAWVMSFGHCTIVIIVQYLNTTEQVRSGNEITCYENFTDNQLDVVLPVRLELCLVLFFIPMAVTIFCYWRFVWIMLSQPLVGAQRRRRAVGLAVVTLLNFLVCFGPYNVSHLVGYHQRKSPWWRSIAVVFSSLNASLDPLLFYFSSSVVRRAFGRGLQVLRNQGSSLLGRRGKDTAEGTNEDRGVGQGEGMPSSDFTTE
readout: inhibition at 50 µM (%)

Solved cases (2 shown):
{"molecule": "CCOC(=O)COC(=O)C1=C(C)NC2=C(C(=O)CCC2)C1c1cccs1 (centres unmarked) [1-9]", "unitOfMeasure": "%", "inhibition at 50 µM": 40}
{"molecule": "CCOC(=O)CSc1nc(=O)c2c(CCCCCl)cc(=O)oc2[nH]1 [3-2]", "unitOfMeasure": "%", "inhibition at 50 µM": 64}

(1) O=C(CSc1nc(=O)c2c(CCCCCl)cc(=O)oc2[nH]1)Nc1ccccc1C(=O)O [3-7]
(2) CCCc1cc(=O)oc2[nH]c(=S)[nH]c(=O)c12 [2-3]
Query: Hi! Which is lower in terms of inhibition at 50 µM, the first one 1 or the second one 2 ? Indicate your choice by writing its label.
Result: 2
(2: 29%, 1: 52%)
